assay: chemical genetic growth profiling, strain panel (AID 1159580);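 note: tested at 20 µM; growth read once vehicle control cultures reached saturation at 30 °C; 1 = growth at the plate median or of vehicle wells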; conditions: S. cerevisiae deletion strains, growth OD, locus YNL250W, strain rad50, stronger effect = lower value
Among all 5,500 compounds or so, about 2,000 (36%) were called active. Another 18% or so got no clear call; they are omitted. This is one part of the list.
normalized growth values by entry
metric.name: normalized growth

{"compound": "COc1c2ccoc2nc2c(OC)c(OCC(O)C(C)(C)O)ccc12 (stereo not drawn)", "test.value": 0.989}
{"compound": "CC(CN1c2ccccc2Sc2ccccc21)N(C)C (stereo not drawn)", "test.value": 0.958}
{"compound": "CCN(CC)C(C)CN1c2ccccc2Sc2ccccc21 (stereo not drawn)", "test.value": 0.98}
{"compound": "COc1cc2c(cc1/C=C/C(=O)c1cc(OC)c(OC)cc1OC)OCO2", "test.value": 1.01}
{"compound": "COc1cc2c(cc1-c1cc3cc4ccoc4cc3oc1=O)OCO2", "test.value": 0.975}
{"compound": "Nc1ccncc1", "test.value": 0.978}
{"compound": "CN(C)CCC(c1ccc(Br)cc1)c1ccccn1 (stereo not drawn)", "test.value": 0.978}
{"compound": "COc1cc(S(C)=O)ccc1-c1nc2ncccc2[nH]1 (stereo not drawn)", "test.value": 0.991}
{"compound": "CC(CN(C)C)CN1c2ccccc2Sc2ccccc21 (stereo not drawn)", "test.value": 0.985}
{"compound": "Nc1cc(-c2ccncc2)c[nH]c1=O", "test.value": 0.963}
{"compound": "COc1cc2c(cc1O)C(Cc1ccc(O)cc1)N(C)CC2 (stereo not drawn)", "test.value": 1}
{"compound": "COc1c2ccccc2nc2occc12", "test.value": 0.963}
{"compound": "COc1ccc(C(=O)CC(=O)c2ccc(C(C)(C)C)cc2)cc1", "test.value": 0.993}

* * *

assay: chemical genetic growth profiling, strain panel (AID 1159580);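 note: tested at 20 µM; growth read once vehicle control cultures reached saturation at 30 °C; 1 = growth at the plate median or of vehicle wells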; conditions: S. cerevisiae deletion strains, growth OD, locus YNL307C, strain MCK1 (second series)
Among all 5,500 compounds or so, about 2,000 (36%) were called active. About 18% were inconclusive and are not listed. No stated cut-off is given here; in the data, active means normalized growth mostly below about 0.91 (no sharp cut-off); inconclusive means no clear call, values can overlap the other calls; inactive means mostly above about 0.92. The list shows a part of the results.
Labels: 1 (active), -1 (inactive)

{"molecule": "N#Cc1ccc(NC(=O)Nc2cccc3ccccc23)cc1", "class.name": -1}
{"molecule": "S=C(Nc1cc(Cl)c(Cl)cc1Cl)Nc1ccccc1Br", "class.name": -1}
{"molecule": "Cc1ccc(N2C(=O)CSC2c2ccc(Cl)c(Cl)c2)cc1Cl (stereo not drawn)", "class.name": -1}
{"molecule": "O=C1/C(=C/c2ccc(C(F)(F)F)cc2)COc2ccccc21", "class.name": -1}
{"molecule": "O=C1/C(=C/c2cccs2)COc2ccccc21", "class.name": -1}
{"molecule": "O=C1CSC(c2ccc(C(F)(F)F)cc2)N1c1ccc(C(F)(F)F)cc1 (stereo not drawn)", "class.name": -1}
{"molecule": "O=C(CCn1c(=O)oc2ccccc21)Sc1ccc(Cl)cc1Cl", "class.name": 1}
{"molecule": "COc1ccc(CC2CCC(=NOC(=O)c3c(Cl)cccc3Cl)CC2)cc1 (stereo not drawn)", "class.name": -1}
{"molecule": "O=C(CCn1c(=O)oc2ccccc21)Sc1ccc(C(F)(F)F)cc1", "class.name": 1}
{"molecule": "CC1C/C(=N/Nc2ccc(Br)cc2)c2cc(Cl)ccc2S1 (stereo not drawn)", "class.name": 1}
{"molecule": "O=S(=O)(Nc1ccc(Oc2ccc(OC(F)(F)F)cc2)cc1)c1cccc(Cl)c1", "class.name": -1}
{"molecule": "CS(=O)(=O)/C(C#N)=C/c1ccccc1OCc1c(Cl)cccc1Cl", "class.name": -1}
{"molecule": "COc1cc(CC/C(C)=N\\O)ccc1OCc1ccc(Cl)c(Cl)c1", "class.name": -1}
{"molecule": "O=C(NNc1ccc(Cl)cc1)c1ccc(F)cc1F", "class.name": 1}
{"molecule": "COc1ccc(OC)c(-c2ccn[nH]2)c1OCc1ccccc1", "class.name": -1}
{"molecule": "Cc1ccc(S(=O)(=O)Nc2ccc(Oc3ccc(F)cc3)cc2)cc1", "class.name": -1}
{"molecule": "COc1ccc(C(=O)NCc2csc3ccc(Cl)cc23)cc1OC", "class.name": -1}
{"molecule": "CC1C/C(=N/Nc2ccc(Br)cc2)c2cc(Cl)ccc2S1(=O)=O (stereo not drawn)", "class.name": -1}
{"molecule": "Cc1nn(Cc2nnc(SCc3cccc(C(F)(F)F)c3)o2)c(C)c1Br", "class.name": -1}
{"molecule": "COc1cc(CC/C(C)=N/O)ccc1OCc1ccc(Cl)cc1Cl", "class.name": -1}
{"molecule": "CSC(=NNc1ccccc1)NC(=O)c1c(Cl)cccc1Cl", "class.name": -1}
{"molecule": "COc1ccc(CC2CCC(=NOC(=O)c3ccc(C(C)(C)C)cc3)CC2)cc1 (stereo not drawn)", "class.name": -1}
{"molecule": "O=C(Nc1cccc2ccccc12)c1ccccc1O", "class.name": 1}

* * *

experiment: chemical genetic growth profiling, strain panel (AID 1159580);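 note: tested at 20 µM; growth read once vehicle control cultures reached saturation at 30 °C; 1 = growth at the plate median or of vehicle wells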; details: S. cerevisiae deletion strains, growth OD, locus YPL240C, strain hsp82, stronger effect = lower value
Screen size: about 5,500 compounds; about 2,000 (36%) were called active. Roughly 18% stayed inconclusive and do not appear here. The list shows a part of the results.
// classify: if (normalized growth < 1) YES else NO

{"compound": "NC(=O)c1ncn(C2O[C@H](CO)[C@@H](O)[C@H]2O)c1N (some centres not stated)", "class.name": "NO"}
{"compound": "O=c1cc(-c2ccccc2)oc2cc(O)c(O)cc12", "class.name": "YES"}
{"compound": "O=c1cc(-c2ccc(O)cc2)oc2cc(O)ccc12", "class.name": "YES"}

* * *

assay: chemical genetic growth profiling, strain panel (AID 1159580);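 note: tested at 20 µM; growth read once vehicle control cultures reached saturation at 30 °C; 1 = growth at the plate median or of vehicle wells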; conditions: S. cerevisiae deletion strains, growth OD, locus YLL001W, strain dnm1
Screen size: about 5,500 compounds; about 2,000 (36%) were called active. Inconclusive results (about 18%) are left out. Cut-off read from the data, not from the text of the source: active = normalized growth mostly below about 0.91 (no sharp cut-off); inconclusive = no clear call, values can overlap the other calls; inactive = mostly above about 0.92. Some of the results follow.
Labels: class 1 = active, class 0 = inactive

{"compound": "OC[C@H]1OC([S-])[C@H](O)[C@@H](O)[C@@H]1O.[Au+] (stereo partly drawn)", "class.name": "class 0"}
{"compound": "CC(=O)OCC(=O)[C@@]1(O)[C@H](OC(C)=O)CC2C3CCC4=CC(=O)C=C[C@]4(C)[C@@]3(F)[C@@H](O)C[C@@]21C (stereo partly drawn)", "class.name": "class 0"}
{"compound": "CC(CN(C)C)CN1c2ccccc2Sc2ccccc21 (stereo not drawn)", "class.name": "class 0"}
{"compound": "CC(CN1c2ccccc2Sc2ccccc21)N(C)C (stereo not drawn)", "class.name": "class 1"}
{"compound": "COc1ccc(C(=O)N2CCCC2=O)cc1", "class.name": "class 0"}
{"compound": "CC(=O)O[C@H]1C[C@@H](OC(C)=O)C(C)(C)C2CC(=O)[C@]3(C)C(CC[C@@]4(C)[C@H](c5ccoc5)OC(=O)[C@H]5O[C@]543)[C@]21C (stereo partly drawn)", "class.name": "class 0"}
{"compound": "Cc1ncc([N+](=O)[O-])n1CC(C)O (stereo not drawn)", "class.name": "class 0"}
{"compound": "Cc1nc2ccccn2c(=O)c1CCN1CCC(C(=O)c2ccc(F)cc2)CC1", "class.name": "class 0"}
{"compound": "Cc1cc(O)c(C=O)c2c1C(=O)Oc1c(COC(=O)/C=C/C(=O)O)c(O)c(C(=O)O)c(C)c1O2", "class.name": "class 1"}
{"compound": "CC(=O)Nc1ccccc1", "class.name": "class 0"}
{"compound": "N[C@H](Cc1ccccc1)C(=O)O", "class.name": "class 0"}
{"compound": "C[C@H](CCC(=O)O)[C@H]1CCC2C3C(CC[C@@]21C)[C@@]1(C)CC[C@@H](O)C[C@H]1C[C@H]3O (stereo partly drawn)", "class.name": "class 0"}
{"compound": "CC(C)CCCC(C)C1CCC2C3CC[C@H]4CCCC[C@]4(C)C3CC[C@]12C (stereo partly drawn)", "class.name": "class 0"}
{"compound": "CN(CCC(N)CC(=O)N[C@H]1C=CC(n2ccc(N)nc2=O)O[C@@H]1C(=O)O)C(=N)N (stereo partly drawn)", "class.name": "class 0"}
{"compound": "COc1cc(S(C)=O)ccc1-c1nc2ncccc2[nH]1 (stereo not drawn)", "class.name": "class 0"}
{"compound": "O=C(Nc1ccccc1)Nc1ccccc1", "class.name": "class 0"}
{"compound": "O=C(O)CCCOc1ccc(Cl)cc1Cl", "class.name": "class 0"}
{"compound": "COc1cc(C)c(C(=O)Oc2cc(C)c(C(=O)O)c(O)c2C)c(OC)c1C", "class.name": "class 0"}
{"compound": "COc1ccc(C(=O)CC(=O)c2ccc(C(C)(C)C)cc2)cc1", "class.name": "class 0"}
{"compound": "C[C@H](CCC(=O)O)[C@H]1CCC2C3C(CC[C@@]21C)[C@@]1(C)CC[C@@H](O)C[C@H]1C[C@@H]3O (stereo partly drawn)", "class.name": "class 0"}
{"compound": "CNCCCN1c2ccccc2CCc2ccccc21", "class.name": "class 0"}
{"compound": "CNC(=O)Oc1ccc2c(c1)[C@]1(C)CCN(C)[C@@H]1N2C", "class.name": "class 0"}
{"compound": "N[C@H](Cc1cc(I)c(Oc2ccc(O)c(I)c2)c(I)c1)C(=O)O", "class.name": "class 0"}
{"compound": "NCC(CC(=O)O)c1ccc(Cl)cc1 (stereo not drawn)", "class.name": "class 0"}
{"compound": "CN1CCN(C2=Nc3ccccc3Oc3ccc(Cl)cc32)CC1", "class.name": "class 0"}
{"compound": "Clc1ccc2c(c1)C(N1CCNCC1)=Nc1ccccc1O2", "class.name": "class 0"}
{"compound": "COC(=O)CCC(C)[C@H]1CCC2C3C(C[C@H](O)[C@@]21C)[C@@]1(C)CC[C@@H](O)C[C@H]1C[C@H]3O (stereo partly drawn)", "class.name": "class 0"}
{"compound": "NC(=O)c1ncn(C2O[C@H](CO)[C@@H](O)[C@H]2O)c1N (stereo partly drawn)", "class.name": "class 0"}
{"compound": "CC[C@H](CCC(C)[C@H]1CCC2C3CCC4C[C@@H](O)CC[C@]4(C)C3CC[C@@]21C)C(C)C (stereo partly drawn)", "class.name": "class 0"}
{"compound": "CC(CCC(=O)O)[C@H]1CCC2C3CC[C@@H]4C[C@H](O)CC[C@]4(C)C3C[C@H](O)[C@@]21C (stereo partly drawn)", "class.name": "class 0"}
{"compound": "CCCCCC1C(=O)CCC1CC(=O)O (stereo not drawn)", "class.name": "class 0"}
{"compound": "C[C@@H](N)[C@@H](O)c1ccccc1", "class.name": "class 0"}
{"compound": "CCN(CC)C(C)CN1c2ccccc2Sc2ccccc21 (stereo not drawn)", "class.name": "class 0"}
{"compound": "CN(C)CCOC(=O)COc1ccc(Cl)cc1", "class.name": "class 0"}
{"compound": "O=C(O)CCC(=O)Nc1ccc(S(=O)(=O)Nc2nccs2)cc1", "class.name": "class 0"}
{"compound": "CC(CCC(=O)O)[C@H]1CCC2C3C[C@H](O)[C@@H]4C[C@H](O)CC[C@]4(C)C3CC[C@@]21C (stereo partly drawn)", "class.name": "class 0"}
{"compound": "CC1=C2[C@H]3OC(=O)[C@@H](C)[C@@H]3CC[C@@]2(C)C=CC1=O", "class.name": "class 0"}
{"compound": "N[C@@H]1[C@@H](O)[C@H](O)[C@@H](CO)O[C@H]1O", "class.name": "class 0"}
{"compound": "CC(CCC(=O)O)[C@H]1CCC2C3CC[C@@H]4CCCC[C@]4(C)C3CC[C@@]21C (stereo partly drawn)", "class.name": "class 0"}
{"compound": "COC(=O)CCC(C)C1CCC2C3CC[C@@H]4C[C@H](O)CC[C@]4(C)C3C[C@H](O)[C@]12C (stereo partly drawn)", "class.name": "class 0"}
{"compound": "NC(Cc1ccc(F)cc1)C(=O)O (stereo not drawn)", "class.name": "class 0"}
{"compound": "CCOC(=O)[C@H](CCc1ccccc1)N[C@@H](C)C(=O)N1Cc2ccccc2C[C@H]1C(=O)O", "class.name": "class 0"}
{"compound": "CCN(CC)CCOC(=O)C(c1ccccc1)c1ccccc1", "class.name": "class 0"}

Data provenance: PubChem BioAssay AID1159580
